Values were extracted from the domain aggregation screens of Martell et al. (2025).

Reported soluble fraction (log2) by item:
experiment: soluble fraction after stress (log2 fold change); higher = more stays soluble; pooled small domains, quantitative proteomics; settings: stress: pH 4
Provide a numeric answer; units are not to be included.

Known soluble fraction (log2) results, listed for orientation:
HMKEILTNESIIQFVKDKVSEEQIIYKINNSPIDFKLDVNSMVSLAKQNVSSTIIIAMENAMNN | -0.522
HMAENTIPSVIGKTLSDATFLLESYGYERGGVSEEYSEMPKGVVIRQSPQAGSSADPGTKVNLVVSLGEEI | -0.692
HMAASTPGTVTGSVVNVRPDPSTNNDRIGVIYQGTKVEILAQVGEWYNIQFGPVSGWVHKDYISTGA | -0.161
HMGTDFRPVFQYVDELVRAGEFTNLKGMIYFTDGRGIFPEKKPDYDAAFVFLDDGYDPPDVPVWAIKLVL | -0.709
HMKAPDSQYKPLTDFQTDASFQKLDAYLRNRYPAMLANAVVYDVLRTPDAISYRVNYQVDNKMITINAAVT | 0.157

Lab note: `HMELDLPLEELGLSTRVLHSLKEEGIESVRALLALNLKDLKNIPGIGERSLEEIKEALEKKGFTLK` gave soluble fraction (log2) of -0.423

###

assay: soluble fraction after stress (log2 fold change); higher = more stays soluble; pooled small domains, quantitative proteomics; conditions: stress: pH 4
Binary call on soluble fraction (log2): t from -0.4 upward, f beneath that.

# example entries with known answers
HMAPLATLEADGNGAVKLPNLAGHAIREVAAALGGANLALIPIGSGTSWKQNPAPGTILHKGDTVTVYF | t
HMLMDVRVPDIIGVEINQAKEILTASSLLIGKITYVSLPEIEKDLVIETSVLAGRRVSAGTVIDITVNKE | f
HMTKLTTDERSVYLHIQNKPGVSASSIREALGYKKSKLTSILAQLLEVHKIIDTEGTGKSLKYIL | t

Q: Hello, I need to know if `HMNTEVDKVLLRSGEAYFGEVLLRNDELVMMKTQDGARFQFPVSEIKSIEKVSVADALRHINS` has measured soluble fraction (log2) not below -0.4. Thanks!
A: t

Q: Hello, I need to know if `HMGSTVRIVVPAADIPAYKDIQPSDLEYREVPKDEISEDAVTDPQEVINKYSTSPLYAGWPINKNIIET` has measured soluble fraction (log2) not below -0.4. Thanks!
A: t

Q: Hello, I need to know if `HMRAEELEQFVERLKNEVMNNFPLKELSDNELREKIENLVEIRLANVYVSIEQRVAIAEQIYSSIR` has measured soluble fraction (log2) not below -0.4. Thanks!
A: f

Q: Hello, I need to know if `HMFSDDEINRLKARDSILVNLRDSEKQVWELYTDGKTVQNIANQLNKHKQSISATIINIKNKISRKQNMLK` has measured soluble fraction (log2) not below -0.4. Thanks!
A: t

Q: Hello, I need to know if `HMSEFLTIVRAVYSGLSRRKVAAMHKVSRNTVSLYLRQARDQGWLTLEDLEKLDDLTVSQGVS` has measured soluble fraction (log2) not below -0.4. Thanks!
A: f

###

test: soluble fraction after stress (log2 fold change); higher = more stays soluble; pooled small domains, quantitative proteomics; conditions: stress: pH 4
Reported soluble fraction (log2) by item:
Provide a numeric answer; units are not to be included.

Known soluble fraction (log2) results, listed for orientation:
HMESNDSNIEDDFYEGLKSMRKGDLKMSVVFFTRVIEKKPTFAEAWNRRATVYYMLGKFDKSMFDINETLK | -0.17
HMHLTRYLHTMIRAANLDDTLDFFVEKLGLIEAYRYSNEAGRFTLVFLSAPDDLESAQSRQAPLVEITYN | -0.329
HMERLKRVTLSLNQSNYSVTEIARRLQAITGIKDITVVEDEQAVYLKVDPATFDLTLAQQAV | -0.653
HMNKPTSMYKLRLLLKHYHAGASKRWMADVLDISRSTLNVYLARIESLNLAFEEWEALSDLEVSRLLINP | -0.852
HMDGSEYAGTVRLGDGTLQPVPRFETSNSETPKYLYLVMDVTHDPPVYILEHESAELKSVLGGLVLIGSYS | -0.0612

Lab note: `HMPALELLVESKKPLLIHGEKIAEDINLFDREKYFIDDELIRIVKEFPSLKIILEHVSSKYGAD` gave soluble fraction (log2) of -1.59

Lab note: `HMRRRTLRQGATGSDVHAVQRLLNVDGAGLRTDGIFGPATERAVIAYQRKHGLAVDGVVGRETWTALLG` gave soluble fraction (log2) of -0.0548

Lab note: `HMDAPRFAAGDAVRVAGLVSKPQHNGRAGSVLSYDPVSLRYIVKVDGEDEPLKLKPENVLMPA` gave soluble fraction (log2) of 0.0764

Lab note: `HMEDIPENIRYKFLLKELKENEHLNILDKENIARKLTEIDLPELEKELLENEILNSTIKDYLGIKLV` gave soluble fraction (log2) of -0.912

Lab note: `HMKREWKDDDPTVPAGWKVAWTTTSDNRAKIAFMSPDKKIFHSRKSALQHMLAAGTYAQSDIEKMTKGL` gave soluble fraction (log2) of 0.377

Lab note: `HMQTTITITNTVTGQKAQFPPPFNPMSLSKIGVDETFEKEVFVDGVDTFGYGLDGYLTFYELKDFLRSYQ` gave soluble fraction (log2) of -2

Lab note: `HMLARFSGIALNTWTQADVERTFGPPMLVERVARFDGDIWTYRFMDDYEPRMAHIHIDRAGTVRQLVF` gave soluble fraction (log2) of -1.74

Lab note: `HMVTNELFGTRLRAFRKEKGLTIEQLAERVGLSPNYLGDIERGKKLPSMATFIRLVNELDISADEL` gave soluble fraction (log2) of 0.174

Lab note: `HMSRAARLALDALPDEWAQFAESRGLAGSAMAETWETFRDYWQAQPGQKGVKADWAATWRNWVRRETQNRG` gave soluble fraction (log2) of -0.074

Lab note: `HMQPDDELVRLLLIKIFNDKQLKVNPAVINYLLRRIDRSFESINNFVKKIDEFSLEKGRKITVNLVSGFF` gave soluble fraction (log2) of -1.43

Lab note: `HMDLPAEFSKPELETLFKRGKQSGELSLTEVRDALEAAQLPNKKTQTKVLKVLSDNAIHVLMDG` gave soluble fraction (log2) of 0.0785

Lab note: `HMKSLVDLEISIVKKDMNYFVLPKINGEPLLMERISASEYKDFQLGKLSKEDIFQKHYPDYSEENIKNGRG` gave soluble fraction (log2) of 0.19
